- SUBJECT_OF_TEST: T1, CD73 on the surface of human tumor cells (human, UniProt P21589 27-549)
- T1 chain: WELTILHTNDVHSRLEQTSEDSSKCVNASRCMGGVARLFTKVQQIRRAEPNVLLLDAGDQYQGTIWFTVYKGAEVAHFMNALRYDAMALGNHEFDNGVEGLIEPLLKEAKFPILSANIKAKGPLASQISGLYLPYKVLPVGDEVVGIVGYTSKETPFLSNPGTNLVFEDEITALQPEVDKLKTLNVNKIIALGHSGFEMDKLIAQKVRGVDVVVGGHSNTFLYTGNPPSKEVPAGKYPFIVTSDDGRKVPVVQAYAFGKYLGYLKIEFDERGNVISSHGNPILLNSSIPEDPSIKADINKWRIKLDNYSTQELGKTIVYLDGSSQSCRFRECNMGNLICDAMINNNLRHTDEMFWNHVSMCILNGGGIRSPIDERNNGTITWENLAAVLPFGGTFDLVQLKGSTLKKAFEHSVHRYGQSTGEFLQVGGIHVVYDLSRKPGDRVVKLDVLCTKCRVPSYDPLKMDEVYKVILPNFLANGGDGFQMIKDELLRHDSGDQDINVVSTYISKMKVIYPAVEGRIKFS
- ASSAY_SUMMARY: FACS; MDA-MB-231 cells, right table
OUTCOME_MEASURE: EC50 (nM)
Give the value in nM but do not write nM after it.

Take a look at these entries with their results.
binder="Hu001c-14 (antibody, V domains shown) VH: QVQLVQSGAEVKKPGASVKVSCKTSGYTFTNYYIYWVRQAPGQRLEWMGWIYPGNLNIKYNEKFKGRVTITADTSASTAYMELSSLRSEDTAVYYCARDDNYAWFAYWGQGTLVTVSS VL: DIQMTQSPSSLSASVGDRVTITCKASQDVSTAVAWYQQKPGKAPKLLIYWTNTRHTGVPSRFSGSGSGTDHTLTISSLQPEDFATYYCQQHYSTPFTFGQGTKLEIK" readout_value=0.626
binder="Hu001c-31 (antibody, V domains shown) VH: QVQLVQSGAEVKKPGASVKVSCKASGYTFTNYYIYWVRQAPGQRLEWIGWIYPGNLNIKYNEKFKGRSTLTADKSASTAYMELSSLRSEDTAVYYCARDDNYAWFAYWGQGTLVTVSS VL: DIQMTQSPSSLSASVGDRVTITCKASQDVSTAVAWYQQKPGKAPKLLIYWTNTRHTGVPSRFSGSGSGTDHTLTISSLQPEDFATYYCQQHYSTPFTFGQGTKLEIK" readout_value=0.514
binder="mAb001c (antibody, V domains shown) VH: QVQLQQSGPELVKPGASVRISCKTSGYTFTNYYIYWVKQRPGQGLEWIGWIYPGNLNIKYNEKFKGKSTLTADKSSSTAFMQLSSLTSEDSAVYFCARDDNYAWFAYWGQGTLVTVSS VL: DIVMTQSHKFMSTSIGDRVSITCKASQDVSTAVAWYQQKPGQSPKLLIYWTNTRHTGVPDRFTGNTSGTEHTLTISSVQAEDLALYYCQQHYSTPFTFGSGTTLEIK" readout_value=0.618

// next item, EC50 requested
The reported EC50 of the binder Hu001c-30 (antibody, V domains shown) VH: QVQLVQSGAEVKKPGASVKVSCKASGYTFTNYYIYWVKQRPGQRLEWIGWIYPGNLNIKYNEKFKGRSTLTADKSASTAYMELSSLRSEDTAVYYCARDDNYAWFAYWGQGTLVTVSS VL: DIQMTQSPSSLSASVGDRVTITCKASQDVSTAVAWYQQKPGKAPKLLIYWTNTRHTGVPSRFSGSGSGTDFTLTISSLQPEDFATYYCQQHYSTPFTFGQGTKLEIK was 0.695
